Origin of the recorded values: ChEMBL document CHEMBL1135302

Molecular target: Glucagon receptor (Homo sapiens)
Test: Percentage inhibition of human glucagon receptor function expressed in CHO cells at a concentration of 20 uM.
Type: cell-based
quantity.measured: inhibition (%)

Use the examples below as a reference point.
smiles_repr=CCCCCc1c(C(C)C)nc(C(C)C)c(CO)c1-c1ccc(C(F)(F)F)cc1 observed_measurement=35
smiles_repr=CCCCCc1c(C(C)C)nc(C(C)C)c(CO)c1-c1ccc(CC)cc1 observed_measurement=42
smiles_repr=CCCCCc1c(C(C)C)nc(C(C)C)c(CO)c1-c1ccc2c(c1)CCCC2 observed_measurement=37
smiles_repr=CCCCCc1c(C(C)C)nc(C(C)C)c(CO)c1-c1ccccc1CO observed_measurement=44

1 = CCCCCc1c(C(C)C)nc(C(C)C)c(CO)c1-c1ccccc1C
2 = CCCCCc1c(C(C)C)nc(C(C)C)c(CO)c1-c1ccc2ccccc2c1
Inquiry: Of 1 and 2 , which one carries the higher reported inhibition? Record your answer as the label of the chosen record.
Reply text: 1

* * *

Target: Glucagon receptor (Homo sapiens, UniProt P47871)
Sequence (P47871 whole entry): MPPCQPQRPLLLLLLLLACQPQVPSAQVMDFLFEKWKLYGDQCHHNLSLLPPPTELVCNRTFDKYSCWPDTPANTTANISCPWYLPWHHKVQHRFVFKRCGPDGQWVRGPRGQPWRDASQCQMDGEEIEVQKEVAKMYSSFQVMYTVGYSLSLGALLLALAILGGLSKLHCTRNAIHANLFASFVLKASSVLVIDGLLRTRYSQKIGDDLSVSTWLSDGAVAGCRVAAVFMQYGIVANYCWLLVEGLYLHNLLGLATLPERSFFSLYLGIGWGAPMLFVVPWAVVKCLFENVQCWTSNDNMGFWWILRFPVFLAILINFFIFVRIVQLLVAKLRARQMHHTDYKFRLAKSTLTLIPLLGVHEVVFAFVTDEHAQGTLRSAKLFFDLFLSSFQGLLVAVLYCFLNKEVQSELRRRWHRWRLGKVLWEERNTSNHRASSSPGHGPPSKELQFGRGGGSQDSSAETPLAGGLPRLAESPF
Experiment: biochemical
Description: Tested for its inhibitory activity against human glucagon receptor (hGR) expressed in CHO cells
pIC50: −log10 of the molar value.
quantity.measured: pIC50

smiles_repr=CCCCCc1c(C(C)C)nc(C(C)C)c(CO)c1-c1ccc(F)cc1F assayed_target="Glucagon receptor (Homo sapiens, UniProt P47871)" quantity_measured=pIC50 observed_measurement=4.96

1 = CCCCCc1c(C(C)C)nc(C(C)C)c(CO)c1-c1ccccc1N
2 = CCCCCc1c(C(C)C)nc(C(C)C)c(CO)c1-c1ccc(F)c(CO)c1
3 = CC(C)=Cc1c(C(C)C)nc(C(C)C)c(O)c1-c1ccc(F)cc1
4 = CCCCCc1c(C(C)C)nc(C(C)C)c(CO)c1-c1cccc(OC)c1
Inquiry: Sort low-to-high on pIC50, please. Lab note: record answer as labels in requested order.
Reply text: 4, 2, 3, 1
(4: 4.32, 2: 4.72, 3: 5.15, 1: 5.64)
